TARGET ENTITY: PARP-1 (Homo sapiens, UniProt P09874)
Construct: purchased Trevigen
Sequence (P09874 whole entry): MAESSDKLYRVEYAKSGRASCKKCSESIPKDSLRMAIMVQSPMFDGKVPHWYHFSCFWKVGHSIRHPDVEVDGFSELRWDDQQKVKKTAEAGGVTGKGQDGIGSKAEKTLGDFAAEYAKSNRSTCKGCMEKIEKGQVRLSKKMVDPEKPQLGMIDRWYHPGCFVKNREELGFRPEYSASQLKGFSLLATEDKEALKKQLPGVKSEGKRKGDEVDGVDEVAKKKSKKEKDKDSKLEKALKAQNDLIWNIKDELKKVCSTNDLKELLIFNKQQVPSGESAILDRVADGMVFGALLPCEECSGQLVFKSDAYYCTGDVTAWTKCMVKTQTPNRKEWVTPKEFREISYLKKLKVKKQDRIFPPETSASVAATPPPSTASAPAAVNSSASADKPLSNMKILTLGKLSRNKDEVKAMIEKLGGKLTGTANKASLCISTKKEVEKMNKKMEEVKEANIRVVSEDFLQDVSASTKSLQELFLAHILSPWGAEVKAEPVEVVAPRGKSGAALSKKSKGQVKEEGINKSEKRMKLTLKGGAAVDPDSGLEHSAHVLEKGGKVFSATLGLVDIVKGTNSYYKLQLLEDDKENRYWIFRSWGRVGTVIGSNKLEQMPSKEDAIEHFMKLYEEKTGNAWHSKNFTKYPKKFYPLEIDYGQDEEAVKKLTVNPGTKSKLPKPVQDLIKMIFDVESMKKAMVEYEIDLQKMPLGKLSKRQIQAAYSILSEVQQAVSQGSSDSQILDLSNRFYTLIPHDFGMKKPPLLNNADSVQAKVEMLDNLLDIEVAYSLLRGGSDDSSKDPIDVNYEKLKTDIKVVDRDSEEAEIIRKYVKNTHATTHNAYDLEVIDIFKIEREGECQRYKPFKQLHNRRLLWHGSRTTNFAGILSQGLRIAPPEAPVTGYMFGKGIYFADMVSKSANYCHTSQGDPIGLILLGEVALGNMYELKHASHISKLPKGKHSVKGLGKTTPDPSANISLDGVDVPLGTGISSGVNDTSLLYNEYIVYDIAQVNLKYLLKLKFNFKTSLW
PROTOCOL NOTES: PARP-1 inhibitory activity, HT universal colorimetric PARP assay kit (Trevigen)
Format: biochemical
RUN CONDITIONS: estimation as calculated from a 4 point dose response curve; read-out: PARP-1 activity in vitro IC50
PARAMETER: IC50 (nM)

{"COMPOUND": "O=C(c1cc(Cc2n[nH]c(=O)c3ccccc23)ccc1F)N1Cc2cscc2C1", "IC50 (nM)": 9.87}
{"COMPOUND": "Cn1ncc2c1CN(C(=O)c1cc(Cc3n[nH]c(=O)c4ccccc34)ccc1F)C2 [Compound 36]", "IC50 (nM)": 27.9}
{"COMPOUND": "O=C1NC(=O)C2CN(C(=O)c3cc(Cc4n[nH]c(=O)c5ccccc45)ccc3F)CC12 (stereo not shown)", "IC50 (nM)": 20.2}
{"COMPOUND": "CCn1cc2c(n1)CN(C(=O)c1cc(Cc3n[nH]c(=O)c4ccccc34)ccc1F)C2", "IC50 (nM)": 8.9}
{"COMPOUND": "O=C(c1cc(Cc2n[nH]c(=O)c3ccccc23)ccc1F)N1CC2=C(C1)CS(=O)(=O)C2", "IC50 (nM)": 18.4}
{"COMPOUND": "COc1cccc(CN2CC3CN(C(=O)c4cc(Cc5n[nH]c(=O)c6ccccc56)ccc4F)CC3C2)n1 (stereo not shown)", "IC50 (nM)": 36}
{"COMPOUND": "O=C(c1cc(Cc2n[nH]c(=O)c3ccccc23)ccc1F)N1CC2CN(Cc3ccccc3F)CC2C1 (stereo not shown)", "IC50 (nM)": 27.8}
{"COMPOUND": "O=C(c1cc(Cc2n[nH]c(=O)c3ccccc23)ccc1F)N1Cc2cocc2C1", "IC50 (nM)": 11.8}
{"COMPOUND": "CS(=O)(=O)N1CC2CN(C(=O)c3cc(Cc4n[nH]c(=O)c5ccccc45)ccc3F)CC2C1 (stereo not shown)", "IC50 (nM)": 104}
{"COMPOUND": "O=C(c1cc(Cc2n[nH]c(=O)c3ccccc23)ccc1F)N1CC2COCC2C1 (stereo not shown)", "IC50 (nM)": 46.5}

P = O=C(c1cc(Cc2n[nH]c(=O)c3ccccc23)ccc1F)N1Cc2cnn(C(=O)C3CC3)c2C1
Q = CCn1ncc2c1CN(C(=O)c1cc(Cc3n[nH]c(=O)c4ccccc34)ccc1F)C2
Higher IC50: P or Q ? Returns: label corresponding to the selected item.
Q
(Q: 48.6 nM, P: 14.1 nM)

* * *

Dear all, this message contains IC50 results, target or system PARP-1 (Homo sapiens).
PARAMETER: IC50 (µM)

The following compounds have reported results that may help.
{"COMPOUND": "O=C1C[C@@H]2CN(C(=O)c3cc(Cc4n[nH]c(=O)c5ccccc45)ccc3F)C[C@@H]2C1", "TARGET ENTITY": "PARP-1 (Homo sapiens)", "PARAMETER": "IC50", "SCALE UNIT": "µM", "OBSERVED MEASUREMENT": 0.0545}
{"COMPOUND": "O=C(c1cc(Cc2n[nH]c(=O)c3ccccc23)ccc1F)N1CC2CN(C(F)F)CC2C1 (centres unmarked)", "TARGET ENTITY": "PARP-1 (Homo sapiens)", "PARAMETER": "IC50", "SCALE UNIT": "µM", "OBSERVED MEASUREMENT": 0.091}
{"COMPOUND": "O=C(c1cc(Cc2n[nH]c(=O)c3ccccc23)ccc1F)N1CC2CNCC2C1 (centres unmarked)", "TARGET ENTITY": "PARP-1 (Homo sapiens)", "PARAMETER": "IC50", "SCALE UNIT": "µM", "OBSERVED MEASUREMENT": 0.0116}

1 = O=C(NC1C[C@@H]2CN(C(=O)c3cc(Cc4n[nH]c(=O)c5ccccc45)ccc3F)C[C@@H]2C1)C1CC1 (some centres unmarked)
2 = Cn1ncc2c1CN(C(=O)c1cc(Cc3n[nH]c(=O)c4ccccc34)ccc1F)C2 [Compound 54, benzenesulfonate]
Higher IC50: 1 or 2 ? Returns: label corresponding to the selected item.
1

* * *

pIC50: −log10 of the molar value. Counter-ions that a name gives are not always drawn.
Dear all, this message contains pIC50 results, target or system PARP-1 (Homo sapiens, UniProt P09874).
PARAMETER: pIC50

The following molecules have reported results that may help.
{"MOLECULE": "O=C(c1cc(Cc2n[nH]c(=O)c3ccccc23)ccc1F)N1CC2CN(Cc3ccc(F)cc3)CC2C1 (stereo not shown) [Compound 24]", "pIC50": 8.01}
{"MOLECULE": "CC(C)n1cc2c(n1)CN(C(=O)c1cc(Cc3n[nH]c(=O)c4ccccc34)ccc1F)C2 [Compound 45]", "pIC50": 7.86}

A = CC(C)n1cc2c(n1)CN(C(=O)c1cc(Cc3n[nH]c(=O)c4ccccc34)ccc1F)C2 [Compound 55]
B = O=C(c1cc(Cc2n[nH]c(=O)c3ccccc23)ccc1F)N1CC2CN(Cc3ccccc3)CC2C1 (single isomer, unassigned) [Compound 9, hydrochloride]
Quick one: lower pIC50, A or B ? Returns: label corresponding to the selected item.
B
(B: 7.62, A: 7.88)
